# Tested on: NOX activity
# PROTOCOL SUMMARY: Amplex Red measurement of extracellular hydrogen peroxide (NOX activity) using DMSO-differentiated HL60 cells
# Type: cell-based, human
# EXPERIMENTAL CONDITIONS: Amplex red, DMSO-differentiated HL60 cells; compound concentration not stated
PARAMETER: Inhibition (%) of NOX activity
Please reply with the bare figure in % and do not write the unit itself.

Below: 4 molecules and their reported Inhibition (%) of NOX activity.
CCCCc1c2c(=O)n(-c3ccc(F)cc3Cl)[nH]c2cc(=O)n1CCOC    76
CCN(CC)CCCn1c(COCc2ccccc2)c2c(=O)n(-c3ccccc3Cl)[nH]c2cc1=O    80
COc1cccc(N2CCN(Cc3c4c(=O)n(-c5ccccc5Cl)[nH]c4cc(=O)n3C)CC2)c1    80
CN(CCCc1c2c(=O)n(-c3ccccc3Cl)[nH]c2cc(=O)n1C)c1ccccc1    77

Bench note: what Inhibition (%) of NOX activity did CCOCCCn1c(CN2CCCC2)c2c(=O)n(-c3ccc(F)cc3Cl)[nH]c2cc1=O show? 86

Bench note: what Inhibition (%) of NOX activity did CCOCCCn1c(CN2CCCC2)c2c(=O)n(Cc3ccccc3)[nH]c2cc1=O show? 89

Bench note: what Inhibition (%) of NOX activity did CN(Cc1cccnc1)Cc1c2c(=O)n(-c3ccccc3Cl)[nH]c2cc(=O)n1C show? 80

Bench note: what Inhibition (%) of NOX activity did Cn1c(COc2ccc(Cl)cc2)c2c(=O)n(-c3ccccc3Cl)[nH]c2cc1=O show? 76

====

Inhibition (%) of NOX activity values for the molecules below.
# System: NOX activity
# PROTOCOL SUMMARY: Amplex Red measurement of extracellular hydrogen peroxide (NOX activity) using DMSO-differentiated HL60 cells
# Format: cell-based, human
# EXPERIMENTAL CONDITIONS: Amplex red, DMSO-differentiated HL60 cells; compound concentration not stated
Please reply with the bare figure in % and do not write the unit itself.

Below: 6 molecules and their reported Inhibition (%) of NOX activity.
O=c1c2c(COCc3ccccc3)n(Cc3cnccn3)c(=O)cc2[nH]n1-c1ccccc1Cl [Compound 113]    87
CCCCc1c2c(=O)n(C)[nH]c2cc(=O)n1Cc1ccccn1 [Compound 3]    84
Cn1c(COCc2cccc(Cl)c2)c2c(=O)n(-c3ccccc3Cl)[nH]c2cc1=O [Compound 139]    76
Cn1[nH]c2cc(=O)n(Cc3ccccn3)c(CCCOc3ccccc3)c2c1=O [Compound 30]    92
COCCn1c(COc2ccc(F)cc2)c2c(=O)n(-c3ccccc3Cl)[nH]c2cc1=O [Compound 58]    80
O=c1c2c(CN3CCOCC3)n(Cc3ccccc3)c(=O)cc2[nH]n1-c1ccccc1Cl [Compound 1]    80

Bench note: what Inhibition (%) of NOX activity did CCCCc1c2c(=O)n(-c3ccc(OCc4ccccc4)cc3)[nH]c2cc(=O)n1C [Compound 5] show? 94

Bench note: what Inhibition (%) of NOX activity did COCCCn1c(CN(C)Cc2ccccc2)c2c(=O)n(-c3ccc(F)cc3Cl)[nH]c2cc1=O [Compound 12] show? 79

Bench note: what Inhibition (%) of NOX activity did CCCCc1c2c(=O)n(-c3ccc(F)cc3Cl)[nH]c2cc(=O)n1Cc1ccco1 [Compound 7] show? 91

Bench note: what Inhibition (%) of NOX activity did CCCCc1c2c(=O)n(-c3ccc(F)cc3Cl)[nH]c2cc(=O)n1CCc1ccccn1 [Compound 10] show? 78

Bench note: what Inhibition (%) of NOX activity did Cn1[nH]c2cc(=O)n(Cc3ccc(Cl)cc3)c(CN3CCCC3)c2c1=O [Compound 52] show? 90

Bench note: what Inhibition (%) of NOX activity did CC(=O)Nc1cccc(Cn2c(CN3CCCC3)c3c(=O)n(-c4ccc(OCc5ccccc5)cc4)[nH]c3cc2=O)c1 [Compound 53] show? 86

Bench note: what Inhibition (%) of NOX activity did CN(Cc1c2c(=O)n(-c3ccccc3Cl)[nH]c2cc(=O)n1CCc1ccccn1)c1ccccc1 [Compound 93] show? 80

Bench note: what Inhibition (%) of NOX activity did CN1CCC(Cn2c(COCc3ccccc3)c3c(=O)n(-c4ccccc4Cl)[nH]c3cc2=O)CC1 [Compound 106] show? 81

Bench note: what Inhibition (%) of NOX activity did Cn1c(COC(c2ccccc2)C(F)(F)F)c2c(=O)n(-c3ccccc3Cl)[nH]c2cc1=O (centres unmarked) [Compound 108] show? 75

Bench note: what Inhibition (%) of NOX activity did COCc1c2c(=O)n(-c3cccc(Cl)c3)[nH]c2cc(=O)n1Cc1ccccn1 [Compound 23] show? 89

====

# Test system: NOX activity
# PROTOCOL SUMMARY: Amplex Red measurement of extracellular hydrogen peroxide (NOX activity) using DMSO-differentiated HL60 cells
# Type: cell-based, human
# EXPERIMENTAL CONDITIONS: Amplex red, DMSO-differentiated HL60 cells; compound concentration not stated
PARAMETER: Inhibition (%) of NOX activity
Please reply with the bare figure in % and do not write the unit itself.

Below: 5 compounds and their reported Inhibition (%) of NOX activity.
Cn1c(CCCN2CCc3ccccc32)c2c(=O)n(-c3ccccc3Cl)[nH]c2cc1=O    90
CN(C)C(=O)Cn1c(COCc2ccccc2)c2c(=O)n(-c3ccccc3Cl)[nH]c2cc1=O    81
CCCCc1c2c(=O)n(-c3ccc(F)cc3Cl)[nH]c2cc(=O)n1Cc1ccccc1CN1CCOCC1    86
CC(C)(C)OC(=O)N1CCC(Cn2c(COCc3ccccc3)c3c(=O)n(-c4ccccc4Cl)[nH]c3cc2=O)CC1    78
Cn1c(C2CN(Cc3ccccc3)CCO2)c2c(=O)n(-c3ccccc3Cl)[nH]c2cc1=O (stereo not shown)    78

Bench note: what Inhibition (%) of NOX activity did Cn1[nH]c2cc(=O)n(Cc3cccc(N4CCOCC4)n3)c(COc3ccc(F)cc3)c2c1=O show? 80

Bench note: what Inhibition (%) of NOX activity did Cn1[nH]c2cc(=O)n(Cc3ccccn3)c(COCc3ccccc3)c2c1=O show? 89

meta.source: patent US8455485B2
